target: human recombinant monoacylglycerol lipase (hMAGL) (Homo sapiens); assay: fluorometric 7-HRO hydrolysis assay with recombinant hMAGL; dilution reversibility and Lineweaver-Burk kinetics
Sequence (Q99685 whole entry): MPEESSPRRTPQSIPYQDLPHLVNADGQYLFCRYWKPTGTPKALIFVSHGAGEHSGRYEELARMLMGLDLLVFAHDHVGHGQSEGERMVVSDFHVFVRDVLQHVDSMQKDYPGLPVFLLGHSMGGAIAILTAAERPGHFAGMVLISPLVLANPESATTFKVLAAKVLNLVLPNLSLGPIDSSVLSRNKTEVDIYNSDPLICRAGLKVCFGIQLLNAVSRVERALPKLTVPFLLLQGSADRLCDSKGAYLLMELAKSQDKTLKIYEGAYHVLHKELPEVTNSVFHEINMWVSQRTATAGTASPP
pIC50: −log10 of the molar value.
METRIC: pIC50

1: CCCCCCCCCCCCCCCC(=O)Oc1ccc(-c2nc(-c3ccccc3)c(-c3ccccc3)[nH]2)cc1 [compound 4]
2: CCCCCCCC(=O)Oc1ccc(-c2nc(-c3ccccc3)c(-c3ccccc3)[nH]2)cc1 [compound 3]
[Q] Lab notebook, comparison: 1 versus 2 , higher pIC50 goes to which? Record your answer as the label of the chosen record.
[A] 1
